# maps each entry to its IC50
Target: Type-1 angiotensin II receptor (Bos taurus, UniProt P25104)
Sequence (P25104 whole entry): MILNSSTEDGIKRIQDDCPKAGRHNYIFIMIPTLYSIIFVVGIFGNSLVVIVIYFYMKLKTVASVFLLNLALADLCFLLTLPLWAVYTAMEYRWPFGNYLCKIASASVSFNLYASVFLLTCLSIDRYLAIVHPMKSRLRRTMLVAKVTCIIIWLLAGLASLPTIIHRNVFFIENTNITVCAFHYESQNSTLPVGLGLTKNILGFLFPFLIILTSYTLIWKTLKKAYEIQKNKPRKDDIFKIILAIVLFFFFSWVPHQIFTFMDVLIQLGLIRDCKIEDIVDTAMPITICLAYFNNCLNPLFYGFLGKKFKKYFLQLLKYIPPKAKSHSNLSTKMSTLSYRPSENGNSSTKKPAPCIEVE
Experiment: Binding affinity expressed as inhibitory concentration towards bovine adrenal cortex angiotensin II receptor was measured
Type: tissue-based
Use nM as the unit, but write only the number.

Q: What is its IC50 for Type-1 angiotensin II receptor (Bos taurus, UniProt P25104)? Entry: CCCCc1nc2ccc([C@]3(C)C[C@H]4CCCN4O3)cc2c(=O)n1Cc1ccc(-c2ccccc2-c2nn[n-]n2)cc1.[Na+] (stereo in doubt; 1a)
A: 26

Q: Lab note: need IC50 for CCCCc1nc2ccc([C@]3(C)C[C@H]4CCCN4O3)cc2c(=O)n1Cc1ccc(-c2ccccc2-c2nn[n-]n2)cc1.[Na+] (stereo in doubt; 14) on Type-1 angiotensin II receptor (Bos taurus, UniProt P25104), anyone have it?
A: 38

***
Q: Write down the reported IC50 of `CCCCc1nc2ccc([C@@]3(C)C[C@@H]4CCCN4O3)cc2c(=O)n1Cc1ccc(-c2ccccc2-c2nnn[n-]2)cc1.[Na+]` , test system: Type-1 angiotensin II receptor (Bos taurus, UniProt P25104).
A: 77
